Test Details: qHTS assay for small molecule agonists of retinoid X receptor alpha signaling (AID 588544)
Measurement Conditions: HEK293T RXRa-UAS-bla, beta-lactamase reporter, 18 h; 530 nm emission
Records with an inconclusive call do not appear.
Kindly supply the reported max response values for the records listed here.
Number only, in %; omit the unit.

Exam item: Could you tell me which max response is on file for CCCCOCCOCCSC#N ?
Marked response: 3.38

Exam item: Now this one: Fc1ccccc1
Marked response: -11.1

Exam item: Now this one: CO[Si](CCCNCCC[Si](OC)(OC)OC)(OC)OC
Marked response: 9.17

Exam item: Now this one: CCCCC(CC)CNCC(CC)CCCC (stereo unspecified)
Marked response: 2.31

Exam item: Now this one: Cc1nc2ccc(Cl)cc2[nH]1
Marked response: -24.2

Exam item: Now this one: O=C(O)CNC(=O)c1ccc(CO)o1
Marked response: -18.2

Exam item: Now this one: c1ccc2n[nH]nc2c1
Marked response: -15.8

Exam item: Now this one: FC(F)(F)c1cccc(Cl)c1
Marked response: -1.24

Exam item: Now this one: CC(N)CN (stereo unspecified)
Marked response: -2.32

Exam item: Now this one: Cc1ccc2ccccc2c1[N+](=O)[O-]
Marked response: -7.86

Exam item: Now this one: CC(=O)CCc1ccccc1
Marked response: -7.54

Exam item: Now this one: Cc1ccc(Br)cc1
Marked response: 5.91

Exam item: Now this one: CC(C)N(C)C
Marked response: -10.9

Exam item: Now this one: Cc1ccc(S(=O)(=O)NC2CCCCC2)cc1
Marked response: -12.2

Exam item: Now this one: O=C1C=CCCC1
Marked response: 8.41

Exam item: Now this one: O=C1CCC(=O)O1
Marked response: 8.02

Exam item: Now this one: C=Cc1ccccn1
Marked response: -16.6

Exam item: Now this one: Cc1ccco1
Marked response: -10.8

Exam item: Now this one: C=C(C)C(=O)OCCCCCC
Marked response: -12.9

Exam item: Now this one: Cc1cccc(C(=O)O)c1
Marked response: -7.73

Exam item: Now this one: CNC(=O)N(c1ccccc1)c1ccccc1
Marked response: -17.1

Exam item: Now this one: O=C(O[C@@H](C(=O)O)[C@@H](OC(=O)c1ccccc1)C(=O)O)c1ccccc1
Marked response: -17.8

Exam item: Now this one: CCCCC(CC)CO (stereo unspecified)
Marked response: -6.11

Exam item: Now this one: COc1ccc(N)c(C)c1
Marked response: -12.9

Exam item: Now this one: O=Cc1ccc(CO)o1
Marked response: -13.3

Exam item: Now this one: CC(=O)Nc1cccc(N)c1
Marked response: -8.93

Exam item: Now this one: Nc1ccc(Cl)cc1[N+](=O)[O-]
Marked response: -5.09

Exam item: Now this one: CCN(C(=O)N(CC)c1ccccc1)c1ccccc1
Marked response: 6.15

Exam item: Now this one: Nc1nc(-c2ccccc2)cs1
Marked response: -6.18

Exam item: Now this one: Cc1c(N)cccc1[N+](=O)[O-]
Marked response: -2.78

Exam item: Now this one: CC(C)=CCl
Marked response: 6.48

Exam item: Now this one: C=C(C)C(=O)OC
Marked response: -17.1

Exam item: Now this one: O=C(O)c1ccccc1[N+](=O)[O-]
Marked response: -10.1

Exam item: Now this one: Cc1cccc2sc(N)nc12
Marked response: -1.76

Exam item: Now this one: Cc1ccc(C(=O)O)cc1
Marked response: 4.67

Exam item: Now this one: CSCCC=O
Marked response: -12.2

Exam item: Now this one: O=C(O)c1cccc(Cl)c1Cl
Marked response: -8.8

Exam item: Now this one: CCCOCC(C)O (stereo unspecified)
Marked response: -2.42

Exam item: Now this one: CCCCCCCN
Marked response: -16.2

Exam item: Now this one: CCOCC(=O)O
Marked response: -7.45

Exam item: Now this one: FC(F)(F)c1ccccc1Cl
Marked response: -12.9

Exam item: Now this one: CCc1ccccc1
Marked response: 10.6

Exam item: Now this one: Cc1cccc2cccnc12
Marked response: -2.92

Exam item: Now this one: O=C1NC(=O)c2cc([N+](=O)[O-])ccc21
Marked response: 3.03

Exam item: Now this one: c1ccc2[nH]cnc2c1
Marked response: -10.3

Exam item: Now this one: CNc1ccc([N+](=O)[O-])cc1
Marked response: 3.4

Exam item: Now this one: C=CCn1c(=O)n(CC=C)c(=O)n(CC=C)c1=O
Marked response: -13.5

Exam item: Now this one: C=C(C)C1CC=C(C)C(OC(C)=O)C1 (stereo unspecified)
Marked response: -3.57

Exam item: Now this one: CC(=O)C1(C)CC2=C(CCCC2(C)C)CC1C (stereo unspecified)
Marked response: -9.8

Exam item: Now this one: NC(=O)/N=N/C(N)=O
Marked response: -17.5

Exam item: Now this one: CCCCC(C=O)CC (stereo unspecified)
Marked response: 4.08

Exam item: Now this one: CSc1ccc(C=O)cc1
Marked response: -15.5

Exam item: Now this one: O=[N+]([O-])c1cccc(Cl)c1
Marked response: -8.32

Exam item: Now this one: CCC(C)(C)C
Marked response: 7.52

Exam item: Now this one: Nc1ccc(F)cc1F
Marked response: -10.9

Exam item: Now this one: CCOc1ccccc1N
Marked response: 0.0722

Exam item: Now this one: Cc1ccc(Cl)cc1
Marked response: 0.942

Exam item: Now this one: BrC/C=C/CBr
Marked response: 2.54

Exam item: Now this one: CCNc1ccccc1
Marked response: -5.14

Exam item: Now this one: CC(C)(O)CCC(C)(C)O
Marked response: -8.68

Exam item: Now this one: CCC(C)(C)OC
Marked response: 10.3

Exam item: Now this one: CCC(O)C(C)(C)C (stereo unspecified)
Marked response: -3.08

Exam item: Now this one: CCCCCCCCCCCCC1CO1 (stereo unspecified)
Marked response: -5.24

Exam item: Now this one: COC(=O)c1ccccc1
Marked response: 0.622

Exam item: Now this one: CC(=O)c1nccs1
Marked response: 4.76

Exam item: Now this one: Nc1cc(Cl)c(N)c(Cl)c1
Marked response: -14.2

Exam item: Now this one: CNC(=O)c1ccccc1
Marked response: -5.28

Exam item: Now this one: Nc1nc(CC(=O)O)cs1
Marked response: -4.19

Exam item: Now this one: CCC(C)=O
Marked response: -3

Exam item: Now this one: CCCCCCO
Marked response: -18.4

Exam item: Now this one: C=C(C)C(=O)OCC(C)O (stereo unspecified)
Marked response: -4.4
